Listing: inhibition at 1 µM of selected compounds
TEST TARGET: HDAC6 enzyme (Homo sapiens, UniProt Q9UBN7)
Construct: transducing full length HDAC1 and HDAC6 genes into Sf-9 insect cells; GST; purchased SignalChem; host or cells: Sf-9 insect cells
Sequence (Q9UBN7 1-1215): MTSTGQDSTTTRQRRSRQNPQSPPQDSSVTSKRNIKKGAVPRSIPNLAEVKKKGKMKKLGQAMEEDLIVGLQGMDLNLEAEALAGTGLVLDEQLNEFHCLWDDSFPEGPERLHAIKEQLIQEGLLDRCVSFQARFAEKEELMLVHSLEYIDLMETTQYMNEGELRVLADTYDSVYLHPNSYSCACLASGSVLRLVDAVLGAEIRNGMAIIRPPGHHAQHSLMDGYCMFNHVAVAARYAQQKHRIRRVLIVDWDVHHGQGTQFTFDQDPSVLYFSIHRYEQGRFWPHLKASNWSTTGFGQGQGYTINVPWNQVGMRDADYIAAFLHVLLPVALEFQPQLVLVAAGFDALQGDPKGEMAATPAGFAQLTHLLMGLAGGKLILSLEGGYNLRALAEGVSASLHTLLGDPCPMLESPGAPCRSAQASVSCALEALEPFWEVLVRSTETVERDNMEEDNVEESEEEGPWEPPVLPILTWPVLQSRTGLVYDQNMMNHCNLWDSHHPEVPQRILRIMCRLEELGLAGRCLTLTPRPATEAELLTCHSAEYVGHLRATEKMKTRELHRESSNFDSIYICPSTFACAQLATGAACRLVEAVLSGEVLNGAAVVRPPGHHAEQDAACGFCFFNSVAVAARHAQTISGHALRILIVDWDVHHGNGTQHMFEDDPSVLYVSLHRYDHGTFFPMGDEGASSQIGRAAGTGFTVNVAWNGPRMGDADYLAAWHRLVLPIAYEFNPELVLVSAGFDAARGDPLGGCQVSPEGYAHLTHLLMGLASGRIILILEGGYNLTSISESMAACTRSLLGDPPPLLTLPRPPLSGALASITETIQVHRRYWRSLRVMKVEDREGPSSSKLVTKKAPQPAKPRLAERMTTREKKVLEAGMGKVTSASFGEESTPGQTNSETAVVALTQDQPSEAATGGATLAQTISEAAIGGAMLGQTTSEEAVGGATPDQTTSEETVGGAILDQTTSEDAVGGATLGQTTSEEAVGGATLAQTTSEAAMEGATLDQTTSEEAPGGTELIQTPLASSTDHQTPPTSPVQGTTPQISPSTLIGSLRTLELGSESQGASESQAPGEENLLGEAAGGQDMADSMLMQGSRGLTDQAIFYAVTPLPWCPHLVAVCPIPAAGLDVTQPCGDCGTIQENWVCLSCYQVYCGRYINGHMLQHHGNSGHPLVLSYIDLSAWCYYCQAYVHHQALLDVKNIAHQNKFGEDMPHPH
TEST SUMMARY: HDAC6 enzyme inhibitory assay (HDAC-Glo I/II Assay kit)
Type: biochemical
TEST CONDITIONS: wells without enzyme = 100% inhibition, read-out: HDAC6 inhibitory rate (%) (1 μM)
MEASURED ENDPOINT: inhibition at 1 µM (%)

| COMPOUND | TEST TARGET | EXPERIMENTAL VALUE |
| --- | --- | --- |
| O=C(NCC1CCCCN1C(=O)Nc1ccc(-c2noc(C(F)(F)F)n2)cc1)c1ccccc1C(F)(F)F (stereo not shown) [Example 16] | HDAC6 enzyme (Homo sapiens, UniProt Q9UBN7) | 1 |
| O=C(NCC1CCCCN1C(=O)Nc1ccc(-c2noc(C(F)(F)F)n2)cc1)c1cc2ccccc2o1 (stereo not shown) [Example 44] | HDAC6 enzyme (Homo sapiens, UniProt Q9UBN7) | 1 |
| O=C(NCC1CCCCN1C(=O)Nc1ccc(-c2noc(C(F)(F)F)n2)cc1)c1cccc(F)c1 (stereo not shown) [Example 5] | HDAC6 enzyme (Homo sapiens, UniProt Q9UBN7) | 4 |
| O=C(NCC1CCCCN1C(=O)Nc1ccc(-c2noc(C(F)(F)F)n2)cc1)c1ccccc1-c1ccccc1 (stereo not shown) [Example 13] | HDAC6 enzyme (Homo sapiens, UniProt Q9UBN7) | 9 |
| O=C(NCC1CCCCN1C(=O)Nc1ccc(-c2noc(C(F)(F)F)n2)cc1)C1CCOCC1 (stereo not shown) [Example 51] | HDAC6 enzyme (Homo sapiens, UniProt Q9UBN7) | 8 |
| N#Cc1ccccc1C(=O)NCC1CCCCN1C(=O)Nc1ccc(-c2noc(C(F)(F)F)n2)cc1 (stereo not shown) [Example 19] | HDAC6 enzyme (Homo sapiens, UniProt Q9UBN7) | 2 |
| O=C(NCC1COCCN1C(=O)Nc1ccc(-c2noc(C(F)(F)F)n2)cc1)c1ccccc1 (stereo not shown) [Example 1] | HDAC6 enzyme (Homo sapiens, UniProt Q9UBN7) | 6 |
| O=C(NCC1CCCCN1C(=O)Nc1ccc(-c2noc(C(F)(F)F)n2)cc1)c1cc(Cl)cc(Cl)c1 (stereo not shown) [Example 33] | HDAC6 enzyme (Homo sapiens, UniProt Q9UBN7) | 0 |
| Cc1cccc(C(=O)NCC2CCCCN2C(=O)Nc2ccc(-c3noc(C(F)(F)F)n3)cc2)c1 (stereo not shown) [Example 11] | HDAC6 enzyme (Homo sapiens, UniProt Q9UBN7) | 5 |
| O=C(NCC1CCCCN1C(=O)Nc1ccc(-c2noc(C(F)(F)F)n2)cc1)c1cccc(Cl)c1Cl (stereo not shown) [Example 30] | HDAC6 enzyme (Homo sapiens, UniProt Q9UBN7) | 1 |
| N#Cc1cccc(C(=O)NCC2CCCCN2C(=O)Nc2ccc(-c3noc(C(F)(F)F)n3)cc2)c1 (stereo not shown) [Example 20] | HDAC6 enzyme (Homo sapiens, UniProt Q9UBN7) | 4 |
| O=C(NCC1COCCN1C(=O)Nc1ccc(-c2noc(C(F)(F)F)n2)cn1)c1ccccc1 (stereo not shown) [Example 64] | HDAC6 enzyme (Homo sapiens, UniProt Q9UBN7) | 15 |
| O=C(NCC1CCCCN1C(=O)Nc1ccc(-c2noc(C(F)(F)F)n2)cc1)c1ccc(Cl)cc1 (stereo not shown) [Example 9] | HDAC6 enzyme (Homo sapiens, UniProt Q9UBN7) | 3 |
| Cn1ccnc1C(=O)NCC1CCCCN1C(=O)Nc1ccc(-c2noc(C(F)(F)F)n2)cc1 (stereo not shown) [Example 39] | HDAC6 enzyme (Homo sapiens, UniProt Q9UBN7) | 5 |
| O=C(CCc1ccccc1)NCC1CCCCN1C(=O)Nc1ccc(-c2noc(C(F)(F)F)n2)cc1 (stereo not shown) [Example 47] | HDAC6 enzyme (Homo sapiens, UniProt Q9UBN7) | 7 |
| O=C(NCC1CCCCN1C(=O)Nc1ccc(-c2noc(C(F)(F)F)n2)cc1)c1cccnc1 (stereo not shown) [Example 35] | HDAC6 enzyme (Homo sapiens, UniProt Q9UBN7) | 4 |
